- test_summary: Serum stability assay in human serum (LC/MS)
- condition_notes: human, Remaining peptide (%), 37 °C, incubation time 2 h, relative to 0 h = 100%, technical replicates
Numbered stars: 1 amine (or outer) side, 2 acyl side, 3 side chain; on linkers, the order of the positions; unused ones are H or OH. Bridge positions count the residues as written; N and C are the ends. Square brackets hold non-standard residues; d marks the D form. Peptide text beside a SMILES is read from it. Acbc(cis-1,3) = O=C([C@H]1C[C@@H](N[*:1])C1)[*:2]; X1 = O=C([C@@H]1CC[C@H](N[*:1])C1)[*:2]
reported_endpoint: remaining at 2 h, 10 μM
Answer by giving the amount and then stating its unit.

Prompt: Please give measured remaining at 2 h, 10 μM of the following entry: CC(C)C[C@@H]1NC(=O)[C@H](CC(N)=O)NC(=O)[C@H](CC(C)C)NC(=O)[C@H]2C[C@H](C2)NC(=O)[C@H](CCC(N)=O)NC(=O)[C@H](Cc2ccccc2)NC(=O)[C@@H](Cc2ccc(O)cc2)NC(=O)CSC[C@H](C(N)=O)NC(=O)CNC(=O)[C@@H]2CCCN2C(=O)[C@H](CCCNC(=N)N)NC(=O)[C@H](Cc2ccc(O)cc2)NC(=O)CNC1=O [GM4H3Q] ({CH2CO}-[dY]FQ[Acbc(cis-1,3)]LNLGYRPG[dC]-NH2; thioether N-13)
Response: 87.5%

Next:
Prompt: Quick one: give measured remaining at 2 h, 10 μM for CC(C)C[C@@H]1NC(=O)[C@@H](Cc2ccc(O)cc2)NC(=O)CSC[C@H](C(N)=O)NC(=O)[C@H](C)NC(=O)[C@H](C)NC(=O)[C@H](Cc2ccc(O)cc2)NC(=O)[C@H](CCCNC(=N)N)NC(=O)[C@H](Cc2ccc(O)cc2)NC(=O)[C@@H]2CC[C@@H](C2)NC(=O)[C@H](CO)NC(=O)[C@H](Cc2ccc(O)cc2)NC(=O)[C@H]([C@@H](C)O)NC(=O)[C@H](CO)NC(=O)[C@H](C)NC(=O)[C@H](Cc2ccc(O)cc2)NC(=O)[C@H](Cc2c[nH]cn2)NC1=O [GM3] ({CH2CO}-[dY]LHYASTYS[X1]YRYAA[dC]-NH2; thioether N-16)
Response: 48.5%

Prompt: Indicate its recorded remaining at 2 h, 10 μM; the compound in question is CC[C@H](C)[C@@H]1NC(=O)[C@H](CO)NC(=O)[C@H](Cc2ccccc2)NC(=O)[C@H]2C[C@H](C2)NC(=O)[C@H](Cc2c[nH]cn2)NC(=O)[C@H](Cc2ccccc2)NC(=O)[C@@H](Cc2ccc(O)cc2)NC(=O)CSC[C@H](C(N)=O)NC(=O)[C@H](CC(C)C)NC(=O)[C@H](CCCNC(=N)N)NC(=O)[C@H](Cc2ccc(O)cc2)NC(=O)[C@H](CCCNC(=N)N)NC(=O)[C@H](Cc2ccccc2)NC1=O [GM2] ({CH2CO}-[dY]FH[Acbc(cis-1,3)]FSIFRYRL[dC]-NH2; thioether N-13)
Response: 36%

Prompt: Complete the entry with remaining at 2 h, 10 μM for CC(C)C[C@@H]1NC(=O)[C@H](C)NC(=O)[C@H](Cc2c[nH]cn2)NC(=O)[C@H](Cc2ccccc2)NC(=O)[C@@H](Cc2ccc(O)cc2)NC(=O)CSC[C@H](C(N)=O)NC(=O)CNC(=O)[C@@H]2CCCN2C(=O)[C@H](CCCNC(=N)N)NC(=O)[C@H](Cc2ccc(O)cc2)NC(=O)CNC(=O)[C@H](CC(C)C)NC(=O)[C@H](CC(N)=O)NC1=O [GM4γ^14A] ({CH2CO}-[dY]FHALNLGYRPG[dC]-NH2; thioether N-13)
Response: 67.6%

Prompt: Tell me its remaining at 2 h, 10 μM given CC(C)C[C@@H]1NC(=O)[C@H]([C@@H](C)O)NC(=O)[C@H](Cc2ccc(O)cc2)NC(=O)[C@H]([C@@H](C)O)NC(=O)[C@H](Cc2c[nH]cn2)NC(=O)[C@@H]2CCCN2C(=O)[C@@H]2CCCN2C(=O)[C@H](Cc2ccccc2)NC(=O)[C@H](C)NC(=O)[C@H](Cc2c[nH]cn2)NC(=O)[C@H](Cc2ccccc2)NC(=O)[C@@H](Cc2ccc(O)cc2)NC(=O)CSC[C@H](C(N)=O)NC1=O [GM1γ^14A] ({CH2CO}-[dY]FHAFPPHTYTL[dC]-NH2; thioether N-13) as the entry.
Response: 70.6%

Prompt: Provide measured remaining at 2 h, 10 μM value, entry: CC[C@H](C)[C@@H]1NC(=O)[C@H](Cc2ccc(O)cc2)NC(=O)[C@H](CC(C)C)NC(=O)[C@H](CC(=O)O)NC(=O)[C@H](CCCNC(=N)N)NC(=O)[C@H](Cc2ccccc2)NC(=O)[C@H](C)NC(=O)[C@H](Cc2c[nH]cn2)NC(=O)[C@H](Cc2ccccc2)NC(=O)[C@@H](Cc2ccc(O)cc2)NC(=O)CSC[C@H](C(N)=O)NC(=O)CNC(=O)[C@H](CC(C)C)NC1=O [GM5γ^24A] ({CH2CO}-[dY]FHAFRDLYILG[dC]-NH2; thioether N-13)
Response: 75.3%

Prompt: Provide only the value of recorded remaining at 2 h, 10 μM for CC(C)C[C@@H]1NC(=O)[C@@H](Cc2ccc(O)cc2)NC(=O)CSC[C@H](C(N)=O)NC(=O)[C@H](C)NC(=O)[C@H](C)NC(=O)[C@H](Cc2ccc(O)cc2)NC(=O)[C@H](CCCNC(=N)N)NC(=O)[C@H](Cc2ccc(O)cc2)NC(=O)[C@H](C)NC(=O)[C@H](CO)NC(=O)[C@H](Cc2ccc(O)cc2)NC(=O)[C@H]([C@@H](C)O)NC(=O)[C@H](CO)NC(=O)[C@H](C)NC(=O)[C@H](Cc2ccc(O)cc2)NC(=O)[C@H](Cc2c[nH]cn2)NC1=O [GM3γ^210A] ({CH2CO}-[dY]LHYASTYSAYRYAA[dC]-NH2; thioether N-16)
Response: 17%
